Tested on: OVCAR-8 complex spheroid, growth inhibition
ASSAY PROTOCOL: Anticancer human tumor OVCAR-8 cell line growth inhibition [Asc];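 also: spheroids exposed to agents for 7 days before readout; percent viability relative to DMSO vehicle wells taken as 100%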
CONDITIONS: second compound 0.0316 µM; first compound 0.0316 µM; stronger effect = lower value
READOUT KIND: viability, T/C (%)
Numbers only, in %.

COMPOUND	UNIT TAG	REPORTED VALUE
COc1c(OCCCN2CCOCC2)ccc2c3n(c(=NC(=O)c4cnc(N)nc4)nc12)CCN3 + CNC(C)C(=O)NC1CN(S(=O)(=O)c2cccc(S(=O)(=O)N3CCC4CCC(C(=O)NC(c5ccccc5)c5ccccc5)N4C(=O)C(NC(=O)C(C)NC)C3)c2)CCC2CCC(C(=O)NC(c3ccccc3)c3ccccc3)N2C1=O	%	107
Cn1ncnc1[C@H]1c2n[nH]c(=O)c3cc(F)cc(c23)N[C@@H]1c1ccc(F)cc1 + CNC(C)C(=O)NC1CN(S(=O)(=O)c2cccc(S(=O)(=O)N3CCC4CCC(C(=O)NC(c5ccccc5)c5ccccc5)N4C(=O)C(NC(=O)C(C)NC)C3)c2)CCC2CCC(C(=O)NC(c3ccccc3)c3ccccc3)N2C1=O	%	99.9
NC1CCC(NC2CC2c2ccccc2)CC1 (centres undefined) + CNC(C)C(=O)NC1CN(S(=O)(=O)c2cccc(S(=O)(=O)N3CCC4CCC(C(=O)NC(c5ccccc5)c5ccccc5)N4C(=O)C(NC(=O)C(C)NC)C3)c2)CCC2CCC(C(=O)NC(c3ccccc3)c3ccccc3)N2C1=O	%	101

--- query ---
What does the data say about its viability, T/C? Entry: O=C(c1ccc(F)c(F)c1Nc1ccc(I)cc1F)N1CC(O)([C@@H]2CCCCN2)C1 + Cc1c(S(C)(=O)=O)c(-c2cc(F)cc(N3CCN(c4ccc(NS(=O)(=O)c5ccc(NC(CCN6CCC(C(=O)OCCCP(=O)(O)O)CC6)CSc6ccccc6)c(S(=O)(=O)C(F)(F)F)c5)cc4)CC3)c2)c(-c2ccc(Cl)cc2)n1C(C)C
140
